Tested on: SK-OV-3 ovarian
PROTOCOL_DESCRIPTION: NCI-60 one-dose screen, 48 h
ASSAY_CONDITIONS: 10 µM unless noted
About 83,000 compounds went through this panel and 20% of them were active in at least one assay; those are over-represented in the sample as a whole. Activity calls are given as the source filed them. How the source made its calls: active means growth percent below 10; inactive means the rest.
Classes used: active, inactive

[[record]]
molecule = "N#Cc1nc(C#N)c(Sc2ccccc2)c(Sc2ccccc2)c1Sc1ccccc1"
classification = "active"

[[record]]
molecule = "COc1c(CCC[P+](c2ccccc2)(c2ccccc2)c2ccccc2)cc2c(c1OC)OCO2"
classification = "inactive"

[[record]]
molecule = "COc1ccc2c(c1)CCCN2c1c2ccccc2nc2ccccc12"
classification = "inactive"

[[record]]
molecule = "Cc1ccc2c(c1)Sc1c(ccc3ccccc13)N2"
classification = "inactive"

[[record]]
molecule = "N#Cc1c(-c2cccc(Cl)c2)cc(-c2cccc(F)c2)[nH]c1=O"
classification = "inactive"

[[record]]
molecule = "Cc1cccc(Cc2cnc(NC(=O)c3ccc4nnsc4c3)s2)c1"
classification = "inactive"

[[record]]
molecule = "Cc1c(C(=O)NC(Cc2ccccc2)C(O)C(=O)NCc2ccc(F)cc2)[nH]c2ccccc2c1=O (stereo not given)"
classification = "inactive"

[[record]]
molecule = "O=C(Nc1ccccc1-c1nc2ccccc2c(=O)[nH]1)c1cc2ccccc2[nH]1"
classification = "inactive"

[[record]]
molecule = "O=C(COc1ccc(/C=C2\\Oc3ccccc3C2=O)cc1)Nc1nc2c(s1)CCCC2"
classification = "inactive"

[[record]]
molecule = "O=C1/C(=C/c2ccc(Br)cc2)C=C(c2ccccc2)N1CCc1ccccc1"
classification = "inactive"

[[record]]
molecule = "COc1ccc(-c2nc3sccn3c2-c2cc(-c3cc(OC)c(OC)c(OC)c3)on2)cc1"
classification = "inactive"

[[record]]
molecule = "O=C1CCC2=C3C4CCCCC4C(=O)C4CCCC(OC2C1)C34 (stereo not given)"
classification = "inactive"

[[record]]
molecule = "CC1=NOC(=O)/C1=C\\c1ccc(O)cc1"
classification = "inactive"

[[record]]
molecule = "CCN(CC)c1ccc(C(=O)c2ccc(N(CC)CC)cc2)cc1"
classification = "active"

[[record]]
molecule = "N#Cc1c(N)nc2c(C#N)c(NC(=O)c3ccccc3)nn2c1-c1ccccc1"
classification = "inactive"

[[record]]
molecule = "COc1cc(N2C(=O)c3nccnc3C2=O)cc(OC)c1OC"
classification = "inactive"

[[record]]
molecule = "COc1ccc2c(c1)O/C(=C/c1ccc(OCC(=O)c3ccccc3)cc1)C2=O"
classification = "inactive"

[[record]]
molecule = "O=C1Nc2ccccc2/C1=C/c1cn(C(=O)c2ccc(Cl)cc2)c2ccccc12"
classification = "inactive"

[[record]]
molecule = "COc1cccc(-c2nn(-c3ccccc3)cc2-c2ccnc(NCCCNC(=O)Nc3ccc(Cl)c(Cl)c3)c2)c1"
classification = "inactive"

[[record]]
molecule = "Cc1cc(C)c2c(-c3nnc(N)s3)cc(=O)oc2c1"
classification = "inactive"

[[record]]
molecule = "Cc1cc(NCCCCNc2ccnc3cc(Cl)ccc23)nc(Nc2ccc(C(=O)N3CCCC3)cc2)n1"
classification = "inactive"

[[record]]
molecule = "CC(=O)C(C)Cc1cc2c(cc1C)C(C)(C)CCC2(C)C (stereo not given)"
classification = "inactive"

[[record]]
molecule = "COc1cccc2c1C(=O)c1c(O)c3c(c(O)c1C2=O)CC(O)(/C(C)=N/NC(=O)CCCCC(=O)N/N=C(\\C)C1(O)Cc2c(O)c4c(c(O)c2C(OC2CC(N)C(O)C(C)O2)C1)C(=O)c1c(OC)cccc1C4=O)CC3OC1CC(N)C(O)C(C)O1 (stereo not given)"
classification = "active"

[[record]]
molecule = "CNC(=O)c1cc(Oc2cccc3nc(Nc4ccc(F)c(Cl)c4)ccc23)ccn1"
classification = "inactive"

[[record]]
molecule = "CC1SC(c2ccc(OCc3ccccc3)cc2)N(NC(=O)C(O)(c2ccccc2)c2ccccc2)C1=O (stereo not given)"
classification = "inactive"

